Tested on: DMS-273
ASSAY: NCI tumour cell line growth inhibition, 48 h
The source made the active and inactive calls. No stated cut-off is given here; in the data, active = GI50 up to about 1.1 µM and inactive = higher.
Your reply should match one of these outcome classes. true = active, false = inactive

Worked cases, answers included:
COc1ccc(/C=C2\CCC(C)(CN(C)C)C2=O)cc1 (stereo unspecified) = false
COC(=O)[C@@]12OC[C@]34C([C@@H](O)C1O)[C@@]1(C)CC(=O)C(OC(=O)CC(C)C(F)(F)F)=C(C)C1C[C@H]3OC(=O)[C@H](O)[C@H]42 (stereo partly specified) = true
Cc1cc(Cl)ccc1NC(=O)C1C(=O)N(c2ccc(Cl)cc2C)C(=O)/C1=N\NC(N)=S (stereo unspecified) = false
COc1cc2oc(-c3ccccc3)cc(=O)c2c(O)c1C = false
c1cncc(C2c3[nH]c4ccccc4c3CCN2CCN2CCCCC2)c1 (stereo unspecified) = false
O=C(CCN1CCN(c2ccccc2)CC1)N1CCc2c([nH]c3ccccc23)C1c1cccnc1 (stereo unspecified) = false
CCOC(C/N=c1/nc(N(C)C)ss1)OCC = false
O=C(Nc1cc(Cl)ccc1Cl)c1cc2cccc(Cl)c2oc1=O = false
Cc1ccccc1N(CCC#N)C1=NN(C(=O)CC(=O)Nc2ccccc2)C(c2ccccc2)C1 (stereo unspecified) = false
CC(C)=CC1(C)/C(=N\O)C(C)(CC(C)C)C(=O)N1O (stereo unspecified) = false

I'd appreciate the recorded outcome for COc1ccc(NC(=O)CC(=O)N2N=C(N(CCC#N)c3ccccc3Cl)CC2c2ccccc2)cc1 (stereo unspecified) from this test.
false

###

Test system: M19-MEL
ASSAY: NCI tumour cell line growth inhibition, 48 h
Activity calls are given as the source filed them. Cut-off read from the data, not from the text of the source: active = GI50 up to about 1.1 µM and inactive = higher. Where a SMILES comes first, the peptide text is derived from it.
Your reply should match one of these outcome classes. active, inactive

O=C(Nc1c(C(=O)NC2CCCCC2)[nH]c(=O)[nH]c1=O)c1ccc(Cl)cc1 = inactive
COc1ccc(C(=O)/C=C/c2ccc(OCC(=O)N3CCN(c4ccccc4)CC3)cc2)cc1 = inactive
CCC(C)C1NC(=O)C2CCCN2C(=O)CNC(=O)C(C)NC(=O)C(Cc2ccccc2)NC(=O)C(C(C)C)NC1=O (stereo unspecified) (cyclo(GPIVFA); configuration not given here) = inactive
CCOC(C/N=c1/nc(N(C)C)ss1)OCC = active
O=C1Nc2c(ccc(Cl)c2I)C1=O = inactive

// switching to the query compound
I'd appreciate the recorded outcome for Cc1cc(-c2ccc(/N=N/c3ccc4c(S(=O)(=O)O)cc(S(=O)(=O)O)c(N)c4c3O)c(C)c2)ccc1/N=N/c1ccc2c(S(=O)(=O)O)cc(S(=O)(=O)O)c(N)c2c1O [EVANS BLUE FREE ACID] from this test.
inactive

###

System: A498
ASSAY: NCI tumour cell line growth inhibition, 48 h
Activity calls are given as the source filed them. Cut-off read from the data, not from the text of the source: active = GI50 up to about 1.1 µM and inactive = higher.
MEASURED_ENDPOINT: GI50

Reference set, count: 2
COC(=O)C(Cl)=C1CC1 = > 100 µM (inactive)
COc1cccc(Nc2nc(N)nc(N)c2N=O)c1 = 21.7 µM (inactive)

Proceeding to the next compound to report its GI50.
I am curious: what GI50 value has been reported for CC(=O)NC1C(OC(C)C(=O)NC(C)C(=O)NC(CCC(=O)NCCCCCNc2ccc([N+](=O)[O-])c3[nH]c4ccccc4c(=O)c23)C(N)=O)C(O)C(CO)OC1(C)OCc1ccccc1 (stereo not drawn) ?
> 100 µM (inactive)
